Entries and their Population Fragmented Nuclei (%)
System: Fibroblast
Test: Multiplex assay against human fibroblast
Format: toxicity, cell-based
Conditions: 12 h, 1 µM, compound concentration 1 uM, replicate 2
parameterMeasured: Population Fragmented Nuclei (%)

INSERT INTO assay_data (compound, valueunits, recordedresult) VALUES
  ('O=C(NCCN1CCC(n2c(=O)[nH]c3cc(Cl)ccc32)CC1)c1ccc(F)cc1 [HALOPEMIDE]', '%', 27),
  ('Br.CS(=O)(=O)Nc1c(O)ccc2c1CCCC2C1=NCCN1 (stereo not given)', '%', 32),
  ('CC(C)(C)c1cc(NC(=O)Nc2ccc(-c3cn4c(n3)sc3cc(OCCN5CCOCC5)ccc34)cc2)no1', '%', 24),
  ('CCCCC(=O)N(Cc1ccc(-c2ccccc2-c2nnn[nH]2)cc1)[C@H](C(=O)O)C(C)C', '%', 21),
  ('CC[C@@H](C)Nc1nc(C)nc2c(-c3ccc(OC)nc3C)c(C)nn12', '%', 32);
